Where these numbers come from: patent US6632829B2

Target: human ETB receptor (Homo sapiens)
Construct: expressed in transfected cells; host or cells: COS7 cells
Sequence (P24530 27-442): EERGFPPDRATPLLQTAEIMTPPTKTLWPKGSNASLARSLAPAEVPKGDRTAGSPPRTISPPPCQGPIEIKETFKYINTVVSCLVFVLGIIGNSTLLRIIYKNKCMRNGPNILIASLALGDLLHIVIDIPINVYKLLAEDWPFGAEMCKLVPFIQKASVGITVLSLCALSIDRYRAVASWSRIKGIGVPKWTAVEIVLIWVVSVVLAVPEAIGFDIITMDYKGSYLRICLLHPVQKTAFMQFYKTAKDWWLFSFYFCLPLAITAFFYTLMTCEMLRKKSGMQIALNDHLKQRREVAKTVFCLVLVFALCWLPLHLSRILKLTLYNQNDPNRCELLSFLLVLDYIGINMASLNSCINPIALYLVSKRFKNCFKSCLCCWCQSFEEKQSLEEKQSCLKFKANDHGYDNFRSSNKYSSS
Experiment: Endothelin binding inhibition, Binding Test #2: competition with 125I-ET-1 for ETB receptors on transfected COS7 cell membranes
Conditions: incubation at 24° C. (values marked †)
A collection of compounds and their measured IC50

{"smiles.entry": "Cc1cccc(-c2ccsc2S(=O)(=O)Nc2onc(C)c2Br)c1", "target.or.test.system": "human ETB receptor (Homo sapiens)", "IC50 / µM": 21.2}
{"smiles.entry": "Cc1noc(NS(=O)(=O)c2ccsc2C(=O)OCc2ccc3c(c2)OCO3)c1Cl", "target.or.test.system": "human ETB receptor (Homo sapiens)", "IC50 / µM": 12}
{"smiles.entry": "Cc1noc(NS(=O)(=O)c2ccsc2C(=O)Nc2ccccc2C(=O)O)c1Br", "target.or.test.system": "human ETB receptor (Homo sapiens)", "IC50 / µM": 20}
{"smiles.entry": "Cc1ccc(-c2ccc(S(=O)(=O)Nc3onc(C)c3Br)s2)s1", "target.or.test.system": "human ETB receptor (Homo sapiens)", "IC50 / µM": 0.21}
{"smiles.entry": "COc1cc(NC(=O)c2sccc2S(=O)(=O)Nc2onc(C)c2Cl)c(C(N)=O)cc1OC", "target.or.test.system": "human ETB receptor (Homo sapiens)", "IC50 / µM": 61}
{"smiles.entry": "Cc1noc(NS(=O)(=O)c2ccsc2C(=O)Nc2cc3c(cc2CNS(C)(=O)=O)OCO3)c1Cl", "target.or.test.system": "human ETB receptor (Homo sapiens)", "IC50 / µM": 19.8}
{"smiles.entry": "COc1cccc(NCc2sccc2S(=O)(=O)Nc2onc(C)c2C)c1", "target.or.test.system": "human ETB receptor (Homo sapiens)", "IC50 / µM": 7.7}
{"smiles.entry": "COC(=O)Cc1c(C)cc(C)c(NC(=O)c2sccc2S(=O)(=O)Nc2onc(C)c2Cl)c1C", "target.or.test.system": "human ETB receptor (Homo sapiens)", "IC50 / µM": 114}
{"smiles.entry": "Cc1cc(C)c(OC(=O)c2sccc2S(=O)(=O)Nc2onc(C)c2Cl)c(C)c1", "target.or.test.system": "human ETB receptor (Homo sapiens)", "IC50 / µM": 30.2}

----------
Target: human ETA receptors (Homo sapiens)
Construct: endogenous in cells; host or cells: TE 671 cells (ATCC HTB 139), membrane preparation
Sequence (P25101 21-427): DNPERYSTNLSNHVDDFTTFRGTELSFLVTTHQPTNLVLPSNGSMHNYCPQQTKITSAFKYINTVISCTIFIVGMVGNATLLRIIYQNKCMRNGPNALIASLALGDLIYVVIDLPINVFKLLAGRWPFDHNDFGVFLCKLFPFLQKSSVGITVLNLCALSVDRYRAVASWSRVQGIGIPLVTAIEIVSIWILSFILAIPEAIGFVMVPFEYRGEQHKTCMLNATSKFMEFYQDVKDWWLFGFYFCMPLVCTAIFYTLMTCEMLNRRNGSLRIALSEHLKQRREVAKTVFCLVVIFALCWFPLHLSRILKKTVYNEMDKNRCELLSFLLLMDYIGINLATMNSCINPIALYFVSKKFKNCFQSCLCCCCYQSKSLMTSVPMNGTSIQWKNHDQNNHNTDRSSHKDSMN
Test: Endothelin binding inhibition, Binding Test #1: competition with 125I-ET-1 for ETA receptors on TE 671 cell membranes
Conditions: incubation at 24° C. (values marked †)
Experimental: Cells from multiple flasks were collected by scraping, pooled and centrifuged for 10 min at 190×g. The cells were resuspended in phosphate buffered saline (PBS) containing 10 mM EDTA using a Tenbroeck homogenizer. […] The supernatant, containing unbound radioactivity, was decanted and the pellet counted on a Genesys multiwell gamma counter. The degree of inhibition of binding (D) was calculated according to the following equation: [formula] […]
pIC50: −log10 of the molar value.
A collection of molecules and their measured pIC50

{"smiles.entry": "Cc1cc2c(cc1CC(=O)c1sccc1S(=O)(=O)Nc1noc(C)c1Cl)OCO2", "pIC50": 9.20}
{"smiles.entry": "Cc1ccc(CC(=O)c2sccc2S(=O)(=O)Nc2onc(C)c2C)c(C)c1", "pIC50": 8.57}
{"smiles.entry": "Cc1noc(NS(=O)(=O)c2ccsc2C(=O)Oc2ccccc2)c1Br", "pIC50": 5.57}
{"smiles.entry": "Cc1ccc(CCc2ccsc2S(=O)(=O)Nc2onc(C)c2Br)c(C)c1", "pIC50": 7.00}
{"smiles.entry": "CC(=O)OCc1c(C)cc(C)c(NC(=O)c2sccc2S(=O)(=O)Nc2noc(C)c2Cl)c1C", "pIC50": 9.29}
